Listing: pEC50 of selected binders
Assay target: IGF1R (human, UniProt P08069)
Experiment description: ELISA
// scale note: pEC50 = -log10(conc_M); give the bare number

Example entries begin here.
DVD031 IGF1R arm (antibody, V domains shown, DVD-Ig inner) VH: EVQLLESGGGLVQPGGSLRLSCTASGFTFSSYAMNWVRQAPGKGLEWVSAISGSGGTTFYADSVKGRFTISRDNSRTTLYLQMNSLRAEDTAVYYCAKDLGWSDSYYYYYGMDVWGQGTTVTVSS VL: DIQMTQFPSSLSASVGDRVTITCRASQGIRNDLGWYQQKPGKAPKRLIYAASRLHRGVPSRFSGSGSGTEFTLTISSLQPEDFATYYCLQHNSYPCSFGQGTKLEIKR | 6.77
DVD032 IGF1R arm (antibody, V domains shown, DVD-Ig outer) VH: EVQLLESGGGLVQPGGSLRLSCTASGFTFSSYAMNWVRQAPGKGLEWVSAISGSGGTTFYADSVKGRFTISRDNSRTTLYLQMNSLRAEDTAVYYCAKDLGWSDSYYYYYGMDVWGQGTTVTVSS VL: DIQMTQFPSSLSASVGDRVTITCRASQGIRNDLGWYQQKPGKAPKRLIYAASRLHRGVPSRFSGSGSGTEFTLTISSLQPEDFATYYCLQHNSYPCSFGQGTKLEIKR | 9.80
DVD022 IGF1R arm (antibody, V domains shown, DVD-Ig outer) VH: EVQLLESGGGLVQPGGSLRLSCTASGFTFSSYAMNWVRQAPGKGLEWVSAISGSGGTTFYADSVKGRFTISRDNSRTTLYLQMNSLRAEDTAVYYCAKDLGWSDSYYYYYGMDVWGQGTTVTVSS VL: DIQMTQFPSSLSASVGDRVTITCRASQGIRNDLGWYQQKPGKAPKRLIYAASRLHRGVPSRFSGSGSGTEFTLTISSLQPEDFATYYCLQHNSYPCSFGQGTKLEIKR | 9.59

Suppose we examine the binder DVD021 IGF1R arm (antibody, V domains shown, DVD-Ig inner) VH: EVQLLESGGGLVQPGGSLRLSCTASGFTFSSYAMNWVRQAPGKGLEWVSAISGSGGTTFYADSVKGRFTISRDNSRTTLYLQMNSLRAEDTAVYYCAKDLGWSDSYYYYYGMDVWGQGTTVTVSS VL: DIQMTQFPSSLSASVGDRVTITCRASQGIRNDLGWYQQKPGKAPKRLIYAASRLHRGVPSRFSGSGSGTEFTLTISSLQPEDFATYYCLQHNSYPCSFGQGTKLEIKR ; what pEC50 value has been reported?
6.87

src = patent US9029508
